The values you see were collected from patent US20250027068.

target: pooled human IgG
Consider the following proteins; for each one, report its Enzyme Activity Endpoint Assay: scIgG.
Field: numeric (ng/µL). Do not append units.

So, PRT-16 (protein) MANQEIRYSEETPYHITSVWTKGVTPPTDFTQGEDVFHAPYVANQGWYDITKTFNGKDDLLCGAATAGNMLHWWFDQNKDQIERYLKKHPEKQKINFNGEQMFDVKEAIDTKDSQTDSKLFEYFKDKAFPYLSTKHLGVFPDHVLDMFINGYRLNLTNHGPTPVKEGSKDPRGGIFDAVFTRGDQSKLLTSRHDFKEKNLKEISDLIKQELQEGKALGLSHTYANVRINHVINLWGADFDSNGNLKAIYVTDSDSNASIGMKKYYVGVNAAGKVAISAKEIEEDNIGAQVLGLFTLSLGQDIWNQTN ? Its Enzyme Activity Endpoint Assay: scIgG was 0

So, PRT-537 (protein) MANQEIRYSSDSEWANKKVWVYGITPPEEGAWFYSTYYLPWKKEYGWYDCNKRNPTADGMMCWAASASNLLHWWIAQNKEYIDLYGDKYKGPDKINFNGEQMFDVKEYIDPLDKPQESDIFQCFIDKSFADLSTKHEAGKGDAGINWFIHGIIPSSPAHGPTPVKLRYPYNPAGYFKDVFPRGDGVVLLGNNGDFKELGKERFNETIKDALANKKGIGLSIGPVNVRSSHVVTIWGAEFDENGDVSYIYMADNNDRWGVGCIRYQIVYEEGGTYTCYKTEIIPSDRPIPINRLVTLELGEEYWKQTNLEHHHHHH ? Its Enzyme Activity Endpoint Assay: scIgG was 0

So, PRT-31 (protein) MANQEIRYSEVTPYHVTSVWTKGVTPPANFTQGEDVFHAPYVANQGWYDITKTFNGKDDLLCGAATAGNMLHWWFDQNKDQIERYLEEHPEKQKINFNGEQMFDVKEAIDTKNHQLDSKLFEYFKEKAFPYLSTKHLGVFPDHVIDMFINGYRLSLTNHGPTPVKEGSKDPRGGIFDAVFTRGDQSKLLTSRHDFKEKNLKEISDLIKKELTEGKALGLSHTYANVRINHVINLWGADFDSNGNLKAIYVTDSDSNASIGMKKYFVGVNSAGKVAISAKEIKEDNIGAQVLGLFTLSTGQDSWNQTN ? Its Enzyme Activity Endpoint Assay: scIgG was 15

So, PRT-11 (protein) MANQEIRYSEETPYHVTSVWTKGVTPPANFTQGEDVFHAPYVANQGWYDITKTFNGKDDLLCGAATAGNMLHWWFDQNKDQIEKYLKEHPEKQKINFNGEQMFDVKEAIDTKDSQTDSKLFEYFKEKAFPYLSTKHLGVFPDHVIDMFINGYRLSLTNHGPTPVKEQSKDPRGGIFDAVFTRGDQSKLLTSRHDFKEKTLKEISDLIKKELSEGKALGLSHTYANVRINHVINLWGADFDSNGNLKAIYVTDSDSNASIGMKKYFVGVNSAGKVAISAKEIKEDNIGAQVLGLFTLSTGQDIWNQTN ? Its Enzyme Activity Endpoint Assay: scIgG was 0
